target: Thromboxane A2 receptor (Homo sapiens, UniProt P21731); format: functional, cell-based; further: assay procedure not described here
Sequence (P21731 whole entry): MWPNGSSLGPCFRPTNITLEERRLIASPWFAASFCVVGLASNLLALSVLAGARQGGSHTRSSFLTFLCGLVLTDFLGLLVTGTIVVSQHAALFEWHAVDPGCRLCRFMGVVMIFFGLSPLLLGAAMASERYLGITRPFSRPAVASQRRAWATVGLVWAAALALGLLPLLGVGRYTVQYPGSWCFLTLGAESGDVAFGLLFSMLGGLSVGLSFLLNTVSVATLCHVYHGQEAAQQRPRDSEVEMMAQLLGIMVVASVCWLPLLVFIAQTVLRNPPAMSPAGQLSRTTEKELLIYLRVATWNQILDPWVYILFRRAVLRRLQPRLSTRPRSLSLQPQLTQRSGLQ
readoutLabel: AC50 (µM)
Give bare numbers, in µM.

In [3]: df
Out[3]:
                                   compound  measurement
0  CC(NCCC(c1ccccc1)c1ccccc1)c1ccccc1 (centres undefined) [FENDILINE]         20.7

# next compound below
For reference, reported AC50 for Cc1c(C)c2c(c(C)c1O)CCC(C)(COc1ccc(CC3SC(=O)NC3=O)cc1)O2 (centres undefined) [TROGLITAZONE] stands at 17.6

====

Would you kindly list AC50 for each of these compounds?
biological target: B2 bradykinin receptor (Homo sapiens, UniProt P30411); further: assay procedure not described here
Sequence (P30411 whole entry): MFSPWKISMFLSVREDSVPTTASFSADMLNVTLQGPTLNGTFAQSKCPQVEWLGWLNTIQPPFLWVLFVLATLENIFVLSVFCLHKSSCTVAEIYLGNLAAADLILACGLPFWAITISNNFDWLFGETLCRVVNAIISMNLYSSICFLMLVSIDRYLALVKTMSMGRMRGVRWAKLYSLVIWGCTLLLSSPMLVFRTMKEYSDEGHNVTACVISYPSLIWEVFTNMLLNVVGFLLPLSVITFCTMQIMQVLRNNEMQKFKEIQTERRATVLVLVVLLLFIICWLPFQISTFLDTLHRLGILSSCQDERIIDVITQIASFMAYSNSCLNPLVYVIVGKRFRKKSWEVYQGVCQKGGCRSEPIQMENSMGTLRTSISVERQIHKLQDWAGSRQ

Some entries whose results are on file:
In [3]: df
Out[3]:
                                   compound                               studysystem  measurement
0  CCC(NC(C)C)C(O)c1ccc(O)c(O)c1 (stereo not given)  B2 bradykinin receptor (Homo sapiens, UniProt P30411)      > 30 µM
1  CN(C)CCCC1(c2ccc(F)cc2)OCc2cc(C#N)ccc21 (stereo not given)  B2 bradykinin receptor (Homo sapiens, UniProt P30411)      > 30 µM

Report AC50 for every entry below.
1. COc1ccc(-c2cc(=S)ss2)cc1
2. CCC(=O)[C@@]1(C)[C@H](C)C[C@H]2[C@@H]3CCC4=CC(=O)C=C[C@]4(C)[C@H]3[C@@H](O)C[C@@]21C [RIMEXOLONE]
3. CN1CCCN=C1/C=C/c1cccc(O)c1
4. Oc1cc(O)c2c(c1)O[C@H](c1ccc(O)c(O)c1)[C@@H](O)C2
5. Nc1nnc(-c2cccc(Cl)c2Cl)c(N)n1

stdout:
1. > 30 µM
2. > 10 µM
3. > 30 µM
4. > 30 µM
5. > 30 µM

Report AC50 for every entry below.
1. CC1=C(C(=O)O)N2C(=O)[C@@H](NC(=O)[C@H](N)C3=CCC=CC3)[C@H]2SC1
2. CCC1(c2ccccc2)C(=O)NCNC1=O
3. NCCCCCC(=O)O

stdout:
1. > 10 µM
2. > 10 µM
3. > 10 µM

====

Where a SMILES comes first, the peptide text is derived from it.
# AC50 per entry for UniProt:P23975
# Sequence (P23975 whole entry): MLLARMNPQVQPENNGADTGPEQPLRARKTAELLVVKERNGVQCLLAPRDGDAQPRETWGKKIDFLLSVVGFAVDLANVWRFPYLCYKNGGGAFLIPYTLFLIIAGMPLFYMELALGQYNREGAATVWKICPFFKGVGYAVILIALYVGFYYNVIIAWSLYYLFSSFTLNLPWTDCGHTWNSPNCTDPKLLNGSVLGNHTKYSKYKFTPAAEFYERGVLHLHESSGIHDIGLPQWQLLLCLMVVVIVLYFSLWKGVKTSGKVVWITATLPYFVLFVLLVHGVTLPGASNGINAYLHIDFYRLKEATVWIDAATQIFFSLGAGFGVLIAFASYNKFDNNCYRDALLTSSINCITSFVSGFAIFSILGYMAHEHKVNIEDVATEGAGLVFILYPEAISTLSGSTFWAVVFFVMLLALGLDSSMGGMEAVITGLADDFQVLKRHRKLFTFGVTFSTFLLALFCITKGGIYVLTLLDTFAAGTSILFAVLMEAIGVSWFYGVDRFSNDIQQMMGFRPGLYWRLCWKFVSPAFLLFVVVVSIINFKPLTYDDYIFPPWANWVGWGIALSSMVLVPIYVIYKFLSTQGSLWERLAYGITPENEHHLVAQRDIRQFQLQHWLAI

Some entries whose results are on file:
>>> print(df.to_string())
                                   molecule  readoutlabel  measurement
0  OCCN(CCO)c1nc(N2CCCCC2)c2nc(N(CCO)CCO)nc(N3CCCCC3)c2n1 [DIPYRIDAMOLE]          AC50      > 30 µM
1  COc1cc(N)cn[n+]1-c1ccccc1 [AMEZINIUM METILSULFATE]          AC50       3.9 µM
2  CN1C(=O)CN=C(c2ccccc2F)c2cc([N+](=O)[O-])ccc21 [FLUNITRAZEPAM]          AC50      > 10 µM
3  CCN(CCO)CCCC(C)Nc1ccnc2cc(Cl)ccc12 (stereo not drawn) [HYDROXYCHLOROQUINE]          AC50      > 10 µM
4  CCCO[C@H]1[C@@H]([C@@H](COCc2ccc(Cl)cc2)OCc2ccc(Cl)cc2)OC(OCC)[C@@H]1O (stereo partly drawn) [CLOBENOSIDE]          AC50      > 30 µM
5  C[C@H](N)C(=O)N[C@@H](CCC(N)=O)C(=O)O [ALANYL GLUTAMINE] (H-Ala-Gln-OH)          AC50      > 30 µM

Report AC50 for every entry below.
1. CC(C)(Oc1ccc(Cl)cc1)C(=O)OCCOC(=O)c1cccnc1 [ETOFIBRATE]
2. C[C@]12CCC(=O)C=C1C=C[C@@H]1[C@@H]2CC[C@@]2(C)[C@H]1CC[C@@]21CCC(=O)O1 [CANRENONE]

stdout:
1: > 30 µM; 2: > 30 µM
